- Tested on: BxPC-3
- assay.summary: Anti-proliferative activity, CellTiterGlo assay, BxPC-3
- Assay type: cell-based
- conditions: Homo sapiens; BxPC-3, 96 hrs incubation; read-out: Antiproliferative activities (IC50) BxPC-3
metric.name: IC50 (µM)
Number in µM, nothing else.

// query IC50 value for entry "COc1c(Cl)c(C)c(/C=N/O)c(O)c1C/C=C(C)/C=C/[C@@]1(C)[C@H](C)CC[C@](C)(O)[C@@H]1C" 12.8
